Target: T1, human NMI (N-myc Interacting protein), recombinant protein (human, UniProt Q13287 1-307, limits assumed)
T1 construct: Gene ID: 9111; also called hNMI; antigen
T1 sequence (looked up): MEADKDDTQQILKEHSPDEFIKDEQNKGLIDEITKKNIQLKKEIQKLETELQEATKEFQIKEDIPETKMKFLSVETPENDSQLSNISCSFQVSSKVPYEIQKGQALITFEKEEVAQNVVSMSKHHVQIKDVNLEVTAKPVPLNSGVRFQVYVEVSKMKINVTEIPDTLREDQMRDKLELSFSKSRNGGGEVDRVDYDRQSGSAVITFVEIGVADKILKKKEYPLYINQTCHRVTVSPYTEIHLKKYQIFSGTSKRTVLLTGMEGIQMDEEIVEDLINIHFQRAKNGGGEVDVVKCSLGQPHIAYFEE
Test: indirect ELISA, coated hNMI
Lab note: anything with EC50 below 0.05 µg/mL is marked y; values at 0.05 µg/mL or higher are marked n.

Past entries and their recorded results:
{"binder": "monoclonal antibody 39B4 (antibody, V domains shown, Rabbit monoclonal antibody; also called 39B4-1) VH: QEQLVESGGGLVQPEGSLTLTCTASGFSFSSSYWICWVRQAPGKGLEWIACIYAGTSGSTYYASWAKGRFTISKTSSTTVDLQMNSLTAADTATYFCARAGYYTYGAGVYIYPSSFKLWGPGTLVTVSS VL: DVVMTQTPASVEAAVGGTVTIKCQASESIGNALAWYQQKPGQPPKLLIYSASNLASGVPSRFSGSGSGTQFTLTISDLECADAATYYCQSYYYSSSSITFGGGTEVVVK", "label": "n"}
{"binder": "monoclonal antibody 240B10-1 (antibody, V domains shown, Rabbit monoclonal antibody) VH: QSLEESGGRLVTPGGSLTLTCTVSGIDLSSYTMGWVRQAPGKGLEYIGIISGGGRTYYASWAKGRFTISKTSSTTVDLKVTSLTTEDTATYFCARIYTLWGQGTLVTVSS VL: QVLTQTLASVSAAVGGTVTINCQSSQSVYNNDYLAWFQQKSGQPPKQLIHSASKLASGVPSRFKGSGSGTQFTLTINDVQCDDAATYYCLGGYDCYSADCNVFGGGTEVVVK", "label": "y"}
{"binder": "monoclonal antibody 98G10 (antibody, V domains shown, Rabbit monoclonal antibody) VH: QEQLEESGGDLVKPEGSLTLTCTASGFSFSASYWICWVRQAPGKGLEWIACIYGGSSGSAYYASWAKGRFTISKTSSTTVTLQMTSLTAADTATYFCARAGYYNYGSAGDIYPSSFKLWGPGTLVTVSS VL: DIVMTQTPASVEAAVGGTVTINCQASQSISTALAWYQQKPGQPPKLLIYTASKVASGVPSRFSGSGSGTQFTLTISDLECADAATYYCQNYYYSSSSITFGGGTEVVVK", "label": "n"}
{"binder": "monoclonal antibody B-8 (antibody, V domains shown, Rabbit monoclonal antibody; also called B8-1) VH: QSLEESGGDLVKPGASLTLTCTASGFSFSSSYYMCWVRQAPGKGLEWIACIYAGSSGSTYYASWAKGRFTISKTSSTTVTLQMTSLTAADTATYFCAREYSYDDYGDFWGFNLWGPGTLVTVSS VL: ALVMTQTPSSVSAAVGGTVTINCQASQNIYTNLAWYQQKPGQPPKLLIYGASNLESGVPSRFKGSGSGTEYTLTISDLECDDAATYYCQSSLYSRIADRANAFGGGTEVVVK", "label": "y"}

Then there is this binder:
Q: Problem: For the binder monoclonal antibody 94C4 (antibody, V domains shown, Rabbit monoclonal antibody; Used biotin-labelled as detection antibody (94C4-1-biotin); also called 94C4-1) VH: QSLEESGGGLVQPEGSLTLTCKASGFDFSSNAMCWVRQAPGKGLEWIACISSASSGSSGSTYYASWAKGRFTISKTSSTTVTLQMTSLTAADMATYFCARDGYDLWGPGTLVTVSS VL: QVLTQTPSSVSAAVGGTVTISCQSSPSVYNNYLSWFQQKPGQSPKLLIYRVSTLASGVPSRFSGSGSGTQFTLTISGVQCDDAATYYCAGGYDSASDTYVFGGGTEVVVK , is EC50 under 0.05 µg/mL?
Ans: y
